Origin of measurements: the supplement of paper PMC10567573

B1: VPS39 (parent)
chain: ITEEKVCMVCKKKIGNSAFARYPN

- Variants of: B1
- experimental protocol: protein stability index of a GFP-peptide fusion (GPS, HEK-293T) (PSI 1-6); higher = more stable;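 note: lentivirally expressed fusions sorted by FACS into six bins by GFP to DsRed ratio, PSI derived from sequencing read proportions per bin multiplied by bin number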
- condition label: c terminus: a fixed tail appended
So basically: protein stability index at 3 or higher? That is Yes. Lower than 3? That is No.

# variant string, label
data = [
    ("I14N", "No"),
    ("V6H", "No"),
    ("R21A", "No"),
    ("T2S", "No"),
    ("K13I", "No"),
    ("T2H", "Yes"),
    ("T2P", "No"),
    ("Y22S", "No"),
    ("K5P", "No"),
    ("F19W", "No"),
    ("T2Y", "No"),
    ("N16V", "No"),
    ("A20V", "No"),
    ("I14Y", "No"),
    ("V9P", "Yes"),
    ("Y22G", "No"),
    ("C10N", "Yes"),
    ("E3R", "Yes"),
    ("A18C", "No"),
    ("N24E", "No"),
    ("E4H", "No"),
]
